System: CAL-51
Test: normalised viability (% of control), CellTiter-Blue; higher = more viable cells (about 100 = DMSO control)
Details: incubation time: 72 h

{"COMPOUND": "CNCc1ccc(-c2[nH]c3cc(F)cc4c3c2CCNC4=O)cc1 [Rucaparib] (10000 nM)", "RESULT_UNIT": "%", "normalised viability": 40.5}
{"COMPOUND": "N.N.[Cl][Pt][Cl] [Cisplatin] (10000 nM)", "RESULT_UNIT": "%", "normalised viability": 105}
{"COMPOUND": "C=C(c1ccc(C(=O)O)cc1)c1cc2c(cc1C)C(C)(C)CCC2(C)C [Bexarotene] (10000 nM)", "RESULT_UNIT": "%", "normalised viability": 90.2}
{"COMPOUND": "CN(N=O)C(=O)N[C@@H](C=O)[C@@H](O)[C@H](O)[C@H](O)CO [Streptozocin] (10000 nM)", "RESULT_UNIT": "%", "normalised viability": 101}
{"COMPOUND": "CN(C)/N=N/c1[nH]cnc1C(N)=O [Dacarbazine] (10000 nM)", "RESULT_UNIT": "%", "normalised viability": 91.2}
{"COMPOUND": "CN[C@@H]1C[C@H]2O[C@@](C)([C@@H]1OC)n1c3ccccc3c3c4c(c5c6ccccc6n2c5c31)C(=O)N[C@H]4O [UCN-01] (10000 nM)", "RESULT_UNIT": "%", "normalised viability": 5.97}
{"COMPOUND": "CC1(C)NC(=O)N(c2ccc([N+](=O)[O-])c(C(F)(F)F)c2)C1=O [Nilutamide] (10000 nM)", "RESULT_UNIT": "%", "normalised viability": 89.4}
{"COMPOUND": "COc1cc2nccc(Oc3ccc(NC(=O)C4(C(=O)Nc5ccc(F)cc5)CC4)cc3)c2cc1OC [Cabozantinib] (1000 nM)", "RESULT_UNIT": "%", "normalised viability": 86.5}

###

System: CAL-148
Assay: normalised viability (% of control), CellTiter-Blue; higher = more viable cells (about 100 = DMSO control)
Details: 10 nM; incubation time: 72 h
METRIC: normalised viability (%)

{"COMPOUND": "Clc1ccc(Nc2nnc(Cc3ccncc3)c3ccccc23)cc1", "READING": 84.4}
{"COMPOUND": "CN(C)/N=N/c1[nH]cnc1C(N)=O", "READING": 96.4}
{"COMPOUND": "COc1cc([C@@H]2c3cc4c(cc3[C@@H](O[C@@H]3O[C@@H]5CO[C@@H](C)O[C@H]5[C@H](O)[C@H]3O)[C@H]3COC(=O)[C@H]23)OCO4)cc(OC)c1O [Etoposide]", "READING": 93.8}

###

Tested on: BT-474
Test: normalised viability (% of control), CellTiter-Blue; higher = more viable cells (about 100 = DMSO control)
Settings: 1000 nM; incubation time: 72 h
Reported normalised viability is given for each of the following compounds.

{"COMPOUND": "Cc1ccc(C(=O)Nc2ccc(CN3CCN(C)CC3)c(C(F)(F)F)c2)cc1C#Cc1cnc2cccnn12 [Ponatinib]", "RESULT_UNIT": "%", "normalised viability": 91.2}
{"COMPOUND": "NC(=O)Nc1cc(-c2cccc(F)c2)sc1C(=O)N[C@H]1CCCNC1 [AZD 7762]", "RESULT_UNIT": "%", "normalised viability": 106}
{"COMPOUND": "CC(C)Cn1cnc2c(N)nc3ccccc3c21 [Imiquimod]", "RESULT_UNIT": "%", "normalised viability": 115}
{"COMPOUND": "Cn1c(CCCC(=O)O)nc2cc(N(CCCl)CCCl)ccc21 [Bendamustine]", "RESULT_UNIT": "%", "normalised viability": 120}
{"COMPOUND": "COc1cc([C@@H]2c3cc4c(cc3[C@@H](O[C@@H]3O[C@@H]5CO[C@@H](C)O[C@H]5[C@H](O)[C@H]3O)[C@H]3COC(=O)[C@H]23)OCO4)cc(OC)c1O [Etoposide]", "RESULT_UNIT": "%", "normalised viability": 96.4}

###

Reported normalised viability values for the following compounds.
Tested on: CAL-85-1
Assay: normalised viability (% of control), CellTiter-Blue; higher = more viable cells (100 = DMSO, 0 = benzethonium chloride kill control)
Settings: incubation time: 72 h
METRIC: normalised viability (%)

{"COMPOUND": "Cn1c(Nc2ccc(C(F)(F)F)cc2)nc2cc(Oc3ccnc(-c4ncc(C(F)(F)F)[nH]4)c3)ccc21 [RAF265] (0.1 nM)", "METRIC": "normalised viability", "READING": 87.7}
{"COMPOUND": "CO[C@H]1/C=C\\C=C(/C)C(=O)NC2=CC(=O)C(NCCN(C)C)=C(C[C@@H](C)C[C@H](OC)[C@H](O)[C@@H](C)/C=C(\\C)[C@@H]1OC(N)=O)C2=O [Alvespimycin] (0.1 nM)", "METRIC": "normalised viability", "READING": 102}
{"COMPOUND": "C=C(c1ccc(C(=O)O)cc1)c1cc2c(cc1C)C(C)(C)CCC2(C)C [Bexarotene] (1 nM)", "METRIC": "normalised viability", "READING": 102}
{"COMPOUND": "CCN(CCCOc1ccc2c(Nc3cc(CC(=O)Nc4cccc(F)c4)[nH]n3)ncnc2c1)CCOP(=O)(O)O [Barasertib] (0.1 nM)", "METRIC": "normalised viability", "READING": 105}
{"COMPOUND": "CCC1=C[C@@H]2CN(C1)Cc1c([nH]c3ccccc13)[C@@](C(=O)OC)(c1cc3c(cc1OC)N(C)[C@H]1[C@@](O)(C(=O)OC)[C@H](OC(C)=O)[C@]4(CC)C=CCN5CC[C@]31[C@@H]54)C2 [Vinorelbine] (1 nM)", "METRIC": "normalised viability", "READING": 98.1}
{"COMPOUND": "NCC(=O)CCC(=O)O [Aminolevulinic acid] (1 nM)", "METRIC": "normalised viability", "READING": 99.4}

###

Test system: CAL-51
Assay: normalised response (% of control), CellTiter-Glo; higher = more viable cells (100 = DMSO, 0 = benzethonium chloride kill control)
Conditions: incubation time: 72 h

{"COMPOUND": "C[C@]12CC[C@@H]3c4ccc(O)cc4C[C@@H](CCCCCCCCC[S+]([O-])CCCC(F)(F)C(F)(F)F)[C@H]3[C@@H]1CC[C@@H]2O (some centres not stated) [Fulvestrant] (1000 nM)", "normalised response (%)": 124}
{"COMPOUND": "Cn1c(CCCC(=O)O)nc2cc(N(CCCl)CCCl)ccc21 [Bendamustine] (10000 nM)", "normalised response (%)": 132}
{"COMPOUND": "CCC1(c2ccc(N)cc2)CCC(=O)NC1=O (configuration not stated) [Aminoglutethimide] (10000 nM)", "normalised response (%)": 145}
{"COMPOUND": "CN[C@@H]1C[C@H]2O[C@@](C)([C@@H]1OC)n1c3ccccc3c3c4c(c5c6ccccc6n2c5c31)C(=O)N[C@H]4O [UCN-01] (10000 nM)", "normalised response (%)": 2.83}
{"COMPOUND": "COc1cc2nccc(Oc3ccc(NC(=O)C4(C(=O)Nc5ccc(F)cc5)CC4)cc3)c2cc1OC [Cabozantinib] (1000 nM)", "normalised response (%)": 111}
{"COMPOUND": "N#CCNC(=O)c1ccc(-c2ccnc(Nc3ccc(N4CCOCC4)cc3)n2)cc1 [Momelotinib] (10000 nM)", "normalised response (%)": 58}
{"COMPOUND": "CN(N=O)C(=O)N[C@@H](C=O)[C@@H](O)[C@H](O)[C@H](O)CO [Streptozocin] (10000 nM)", "normalised response (%)": 91.8}

###

Measured normalised viability, listed per entry.
Tested on: MDA-MB-453
Test: normalised viability (% of control), CellTiter-Blue; higher = more viable cells (about 100 = DMSO control)
Conditions: incubation time: 72 h

{"COMPOUND": "C[C@]12CC[C@@H]3c4ccc(O)cc4C[C@@H](CCCCCCCCC[S+]([O-])CCCC(F)(F)C(F)(F)F)[C@H]3[C@@H]1CC[C@@H]2O (stereo not given in full) [Fulvestrant] (1000 nM)", "RESULT_UNIT": "%", "normalised viability": 84.6}
{"COMPOUND": "Cn1c(Nc2ccc(C(F)(F)F)cc2)nc2cc(Oc3ccnc(-c4ncc(C(F)(F)F)[nH]4)c3)ccc21 [RAF265] (100 nM)", "RESULT_UNIT": "%", "normalised viability": 83.7}
{"COMPOUND": "Cc1ccc(C(=O)Nc2ccc(CN3CCN(C)CC3)c(C(F)(F)F)c2)cc1C#Cc1cnc2cccnn12 [Ponatinib] (100 nM)", "RESULT_UNIT": "%", "normalised viability": 77.7}
{"COMPOUND": "CCN(CCCOc1ccc2c(Nc3cc(CC(=O)Nc4cccc(F)c4)[nH]n3)ncnc2c1)CCOP(=O)(O)O [Barasertib] (100 nM)", "RESULT_UNIT": "%", "normalised viability": 55.3}
{"COMPOUND": "N[C@@H](CSC(c1ccccc1)(c1ccccc1)c1ccccc1)C(=O)O [S-trityl-L-cysteine] (4000 nM)", "RESULT_UNIT": "%", "normalised viability": 94.3}
